Method summary: Solubility in PBS
Assay type: physicochemical
Condition set: Solubility (uM)
Endpoint label: Solubility (µM)
Only the number, expressed in µM, is required.

Recorded Solubility, per entry:
Compound	Solubility, µM
CC(=O)N1CCC[C@]12CC=CCCCC1(CCCC=CCCCCCC[C@@](C)(C(=O)N[C@@H](Cc3cccc(F)c3)C(=O)N[C@@H](Cc3csc4ccccc34)C(=O)N[C@@H](CCC(N)=O)C(N)=O)NC(=O)[C@H](C)NC(=O)[C@H](Cc3ccccc3)NC(=O)[C@H](C)NC(=O)[C@H](C)NC(=O)[C@H](CC(=O)O)NC(=O)[C@H](CC(=O)O)NC1=O)NC(=O)[C@H](C)NC(=O)[C@H](CC(=O)O)NC2=O (some centres unmarked)	48
CC(=O)N1CCC[C@]12CC=CCCCC1(CCCC=CCCCOC(=O)N3CC[C@@](C(=O)N[C@@H](Cc4ccccc4Cl)C(=O)N[C@@H](Cc4csc5ccccc45)C(=O)N[C@@H](C(N)=O)[C@H](C)O)(C3)NC(=O)[C@H](CC(C)C)NC(=O)[C@H](Cc3ccccc3)NC(=O)[C@H](C)NC(=O)[C@H](C)NC(=O)[C@H](CC(=O)O)NC(=O)[C@H](CC(=O)O)NC1=O)NC(=O)[C@H](CC(C)(C)C)NC(=O)[C@H](CC(=O)O)NC2=O (some centres unmarked)	28
CC(=O)N1CCC[C@]12CC=CCCCC1(CCCC=CCCCOC(=O)N3CC[C@@](C(=O)N[C@@H](Cc4ccsc4)C(=O)N[C@@H](Cc4csc5ccccc45)C(=O)N[C@@H](Cc4c[nH]cn4)C(N)=O)(C3)NC(=O)[C@H](CC(N)=O)NC(=O)[C@H](Cc3ccccc3)NC(=O)[C@H](C)NC(=O)[C@H](C)NC(=O)[C@H](CC(=O)O)NC(=O)[C@H](CC(=O)O)NC1=O)NC(=O)[C@H](CCC(C)C)NC(=O)[C@H](CC(=O)O)NC2=O (some centres unmarked)	31
CC(=O)N1CCC[C@]12CC=CCCCC1(CCCC=CCCCOC(=O)N3CC[C@@](C(=O)N[C@@H](Cc4ccsc4)C(=O)N[C@@H](Cc4csc5ccccc45)C(=O)N[C@@H](CCC(N)=O)C(N)=O)(C3)NC(=O)[C@H](CC(N)=O)NC(=O)[C@H](Cc3ccccc3)NC(=O)[C@H](CCCCNC(=O)CCc3cc(C(F)(F)F)cc(C(F)(F)F)c3)NC(=O)[C@H](C)NC(=O)[C@H](CC(=O)O)NC(=O)[C@H](CC(=O)O)NC1=O)NC(=O)[C@H](CC(C)(C)C)NC(=O)[C@H](CC(=O)O)NC2=O (some centres unmarked)	42

We next turn to a different compound, shown below.
Recorded Solubility of CC(=O)N1CCC[C@]12CC=CCCCC1(CCCC=CCCCOC(=O)N3CC[C@@](C(=O)N[C@@H](Cc4ccsc4)C(=O)N[C@@H](Cc4csc5ccccc45)C(=O)N[C@@H](Cc4c[nH]cn4)C(N)=O)(C3)NC(=O)[C@H](CC(N)=O)NC(=O)[C@H](CC(=O)O)NC(=O)[C@H](C)NC(=O)[C@H](C)NC(=O)[C@H](CC(=O)O)NC(=O)[C@H](CC(=O)O)NC1=O)NC(=O)[C@H](CC(C)(C)C)NC(=O)[C@H](Cc1ccccc1)NC2=O (some centres unmarked) , please.
35
